Cited source for all entries: the supplement of paper PMC9233669

system: biotinyl-Val-oxazolone; assay: self-aminoacylation, catalytic enhancement (BVO) (fold over background); higher = more active; k-Seq, kA / k0A0; sequences stand for … in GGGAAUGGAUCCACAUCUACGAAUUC…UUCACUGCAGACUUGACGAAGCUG
Fewer inactive variants are shown than the library holds.
I'd be grateful if you could share measured self-aminoacylation for these entries.

Query: Please look up its self-aminoacylation: AUUACUCUGGUCAACGAGUGA [Fam2.1 aminoacylation ribozyme variant]
Reply: 2.76

Query: Please look up its self-aminoacylation: GUUACCCUGAUCAUCGAGUGA [Fam2.1 aminoacylation ribozyme variant]
Reply: 4.23

Query: Please look up its self-aminoacylation: CCUCACUUCCAGCAAUCGGUC [Fam1B.1 aminoacylation ribozyme variant]
Reply: 1.06

Query: Please look up its self-aminoacylation: AAGUUUGCAAAUAGUCGCAAG [Fam3.1 aminoacylation ribozyme variant]
Reply: 0.752

Query: Please look up its self-aminoacylation: CUGCUUCAAAAAAUCGGUCUG [Fam1A.1 aminoacylation ribozyme variant]
Reply: 0.976

Query: Please look up its self-aminoacylation: AUUACCCUUGUCAUCGAGUGU [Fam2.1 aminoacylation ribozyme variant]
Reply: 2.03

Query: Please look up its self-aminoacylation: AUUUCCCUGGUCAUCCAGUGA [Fam2.1 aminoacylation ribozyme variant]
Reply: 4.5

Query: Please look up its self-aminoacylation: AAGUUUACUAAGAGUCGCAAG [Fam3.1 aminoacylation ribozyme variant]
Reply: 1.36

Query: Please look up its self-aminoacylation: CGACACUUCCAGCAAUCGGUC [Fam1B.1 aminoacylation ribozyme variant]
Reply: 1.49
